Can you tell me pIC50 for the items I'm about to list?
target_system: DNA topoisomerase 1 (Chlorocebus aethiops, UniProt Q7YR26)
Sequence (Q7YR26 whole entry): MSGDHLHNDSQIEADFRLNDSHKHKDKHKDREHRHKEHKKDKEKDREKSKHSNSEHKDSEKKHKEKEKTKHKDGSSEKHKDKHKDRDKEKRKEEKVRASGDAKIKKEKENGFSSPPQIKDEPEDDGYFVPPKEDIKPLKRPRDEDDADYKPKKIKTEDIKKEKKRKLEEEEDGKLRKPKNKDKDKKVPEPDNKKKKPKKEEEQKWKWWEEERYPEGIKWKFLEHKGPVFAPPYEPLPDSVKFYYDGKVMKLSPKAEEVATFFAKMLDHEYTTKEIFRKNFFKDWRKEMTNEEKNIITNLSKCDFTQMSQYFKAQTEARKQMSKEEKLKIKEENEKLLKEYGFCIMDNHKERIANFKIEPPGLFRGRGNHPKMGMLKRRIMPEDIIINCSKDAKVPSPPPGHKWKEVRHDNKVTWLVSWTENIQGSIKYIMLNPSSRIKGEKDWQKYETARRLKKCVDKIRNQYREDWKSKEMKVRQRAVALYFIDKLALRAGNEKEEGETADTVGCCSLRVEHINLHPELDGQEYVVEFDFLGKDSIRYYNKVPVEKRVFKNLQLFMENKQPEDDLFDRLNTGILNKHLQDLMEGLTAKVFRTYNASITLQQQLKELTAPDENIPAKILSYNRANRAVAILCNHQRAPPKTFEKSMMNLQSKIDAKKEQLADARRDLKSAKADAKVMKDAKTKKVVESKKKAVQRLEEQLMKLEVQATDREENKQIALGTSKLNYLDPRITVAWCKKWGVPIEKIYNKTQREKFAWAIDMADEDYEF
method_description: Inhibition topoisomerase 1 in african green monkey Vero cells assessed as conversion of supercoiled pBR322 DNA to relaxed form
Answers are plain numbers, as −log10 of the molar value.

[[record]]
molecule = "C=C1NC(=O)C(C)C(CCC(C)C(=O)/C=C/C(C)=C/CC(C)CCCCCCC)OC(=O)[C@H](CC(OS(=O)(=O)O)C(N)=O)NC(=O)[C@@H](C)CNC1=O (some centres undefined) [TOPOSTATIN]"
measure_name = "pIC50"
obs_value = 4.77


Then this molecule:
Need pIC50, item CC[C@@]1(O)C(=O)OCc2c1cc1n(c2=O)Cc2cc3ccccc3nc2-1 [CAMPTOTHECIN]
4.57

* * *

target_system: Telomerase reverse transcriptase (Homo sapiens, UniProt O14746)
Sequence (O14746 whole entry): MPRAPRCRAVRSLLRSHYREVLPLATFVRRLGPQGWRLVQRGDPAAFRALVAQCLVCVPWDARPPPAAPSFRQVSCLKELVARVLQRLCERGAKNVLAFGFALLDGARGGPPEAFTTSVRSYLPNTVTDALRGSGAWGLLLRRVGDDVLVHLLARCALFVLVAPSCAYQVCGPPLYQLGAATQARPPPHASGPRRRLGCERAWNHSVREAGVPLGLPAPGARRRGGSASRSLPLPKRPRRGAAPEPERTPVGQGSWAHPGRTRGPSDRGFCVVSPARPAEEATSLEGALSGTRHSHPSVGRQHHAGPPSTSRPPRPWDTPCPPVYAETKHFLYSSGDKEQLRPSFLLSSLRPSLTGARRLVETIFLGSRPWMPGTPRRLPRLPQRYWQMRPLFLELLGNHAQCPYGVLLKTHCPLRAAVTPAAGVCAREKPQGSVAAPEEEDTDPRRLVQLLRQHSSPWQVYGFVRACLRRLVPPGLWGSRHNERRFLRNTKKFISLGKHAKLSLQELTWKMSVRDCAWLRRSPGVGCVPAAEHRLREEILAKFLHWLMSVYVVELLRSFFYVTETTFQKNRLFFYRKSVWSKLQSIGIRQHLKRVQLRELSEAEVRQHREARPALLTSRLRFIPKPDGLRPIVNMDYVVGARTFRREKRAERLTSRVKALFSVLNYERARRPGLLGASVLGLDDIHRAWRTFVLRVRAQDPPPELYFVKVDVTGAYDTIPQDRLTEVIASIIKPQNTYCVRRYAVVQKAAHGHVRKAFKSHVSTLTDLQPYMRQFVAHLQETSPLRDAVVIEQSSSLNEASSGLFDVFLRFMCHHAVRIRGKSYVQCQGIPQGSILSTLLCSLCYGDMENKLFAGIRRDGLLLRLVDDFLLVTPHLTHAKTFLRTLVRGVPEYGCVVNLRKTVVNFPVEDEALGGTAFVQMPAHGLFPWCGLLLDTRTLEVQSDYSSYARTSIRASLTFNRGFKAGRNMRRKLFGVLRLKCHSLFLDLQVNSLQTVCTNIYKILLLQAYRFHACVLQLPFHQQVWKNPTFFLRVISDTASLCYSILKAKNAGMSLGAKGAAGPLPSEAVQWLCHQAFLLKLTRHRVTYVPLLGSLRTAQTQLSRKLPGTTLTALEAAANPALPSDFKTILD
measure_name: IC50

Here are 3 compounds together with their reported answers.
[[record]]
compound = "COc1cccc2c1C(=O)c1c(O)c3c(c(O)c1C2=O)C[C@@](O)(C(=O)CO)C[C@@H]3O[C@H]1C[C@H](N)[C@H](O)[C@H](C)O1 [DOXORUBICIN]"
obs_value = "73 µM"

[[record]]
compound = "CC[C@@]1(O)C(=O)OCc2c1cc1n(c2=O)Cc2cc3ccccc3nc2-1 [CAMPTOTHECIN]"
obs_value = "> 300 µM"

[[record]]
compound = "O=C1Oc2cc(O)ccc2/C1=C\\c1ccc(O)cc1 [ISOAUROSTATIN]"
obs_value = "> 400 µM"


Need IC50, item C=C1NC(=O)C(C)C(CCC(C)C(=O)/C=C/C(C)=C/CC(C)CCCCCCC)OC(=O)[C@H](CC(OS(=O)(=O)O)C(N)=O)NC(=O)[C@@H](C)CNC1=O (some centres undefined) [TOPOSTATIN]
> 250 µM

* * *

method_description: Inhibition of wheat germ topoisomerase 1 assessed as conversion of supercoiled pBR322 DNA to relaxed form
Design: species or system Triticum aestivum
Can you tell me pIC50 for the items I'm about to list?
Answers are plain numbers, as −log10 of the molar value.

[[record]]
compound = "O=C1Oc2cc(O)ccc2/C1=C\\c1ccc(O)cc1 [ISOAUROSTATIN]"
obs_value = 4.17


Your task in this section: give pIC50 for each listed record.
1. C=C1NC(=O)C(C)C(CCC(C)C(=O)/C=C/C(C)=C/CC(C)CCCCCCC)OC(=O)[C@H](CC(OS(=O)(=O)O)C(N)=O)NC(=O)[C@@H](C)CNC1=O (some centres undefined) [TOPOSTATIN]
2. CC[C@@]1(O)C(=O)OCc2c1cc1n(c2=O)Cc2cc3ccccc3nc2-1 [CAMPTOTHECIN]

1: 6.00; 2: 5.52

* * *

target_system: Type II restriction enzyme ScaI (Streptomyces caespitosus)
Sequence (O52691 whole entry): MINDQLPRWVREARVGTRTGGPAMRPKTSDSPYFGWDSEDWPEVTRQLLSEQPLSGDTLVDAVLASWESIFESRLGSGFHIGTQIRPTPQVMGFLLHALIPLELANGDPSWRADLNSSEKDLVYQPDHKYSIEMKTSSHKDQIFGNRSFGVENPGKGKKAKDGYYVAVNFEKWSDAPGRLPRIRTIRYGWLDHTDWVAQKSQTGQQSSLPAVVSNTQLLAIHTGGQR
method_description: Inhibition of Streptomyces caespitosus Sca 1 assessed as undigested supercoiled pBR322 DNA concentration
measure_name: IC50

[[record]]
compound = "CC[C@@]1(O)C(=O)OCc2c1cc1n(c2=O)Cc2cc3ccccc3nc2-1 [CAMPTOTHECIN]"
obs_value = "> 300 µM"


Then this compound:
Need IC50, item O=C1Oc2cc(O)ccc2/C1=C\c1ccc(O)cc1 [ISOAUROSTATIN]
> 400 µM

* * *

target_system: DNA topoisomerase 1 (Homo sapiens, UniProt P11387)
Sequence (P11387 whole entry): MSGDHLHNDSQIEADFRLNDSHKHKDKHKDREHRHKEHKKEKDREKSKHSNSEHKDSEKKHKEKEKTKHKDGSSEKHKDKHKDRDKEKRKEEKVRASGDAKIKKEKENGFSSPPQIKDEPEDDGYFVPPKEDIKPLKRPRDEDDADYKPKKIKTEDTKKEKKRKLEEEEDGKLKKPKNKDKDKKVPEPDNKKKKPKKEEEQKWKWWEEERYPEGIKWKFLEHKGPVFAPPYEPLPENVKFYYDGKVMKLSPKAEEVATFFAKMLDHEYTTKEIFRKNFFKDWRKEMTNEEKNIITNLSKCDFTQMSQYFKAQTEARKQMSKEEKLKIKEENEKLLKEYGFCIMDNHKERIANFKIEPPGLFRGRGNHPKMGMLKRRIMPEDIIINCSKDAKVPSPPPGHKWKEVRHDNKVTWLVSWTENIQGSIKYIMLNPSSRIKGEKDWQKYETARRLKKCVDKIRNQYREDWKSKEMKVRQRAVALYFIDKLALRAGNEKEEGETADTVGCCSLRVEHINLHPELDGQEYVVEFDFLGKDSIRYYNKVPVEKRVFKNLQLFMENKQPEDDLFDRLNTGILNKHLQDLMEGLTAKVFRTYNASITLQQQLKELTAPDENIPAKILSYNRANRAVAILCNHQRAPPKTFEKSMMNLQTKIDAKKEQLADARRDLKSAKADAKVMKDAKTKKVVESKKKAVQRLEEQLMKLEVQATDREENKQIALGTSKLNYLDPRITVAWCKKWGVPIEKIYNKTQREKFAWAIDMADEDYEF
method_description: Inhibition topoisomerase 1 in human A549 cells assessed as conversion of supercoiled pBR322 DNA to relaxed form
Type: cell-based
measure_name: pIC50
Give bare numbers, as −log10 of the molar value.

Need pIC50, item C=C1NC(=O)C(C)C(CCC(C)C(=O)/C=C/C(C)=C/CC(C)CCCCCCC)OC(=O)[C@H](CC(OS(=O)(=O)O)C(N)=O)NC(=O)[C@@H](C)CNC1=O (some centres not stated) [TOPOSTATIN]
4.26

* * *

target_system: Type II restriction enzyme HindIII (Haemophilus influenzae (strain ATCC 51907 / DSM 11121 / KW20 / Rd))
Sequence (P43870 whole entry): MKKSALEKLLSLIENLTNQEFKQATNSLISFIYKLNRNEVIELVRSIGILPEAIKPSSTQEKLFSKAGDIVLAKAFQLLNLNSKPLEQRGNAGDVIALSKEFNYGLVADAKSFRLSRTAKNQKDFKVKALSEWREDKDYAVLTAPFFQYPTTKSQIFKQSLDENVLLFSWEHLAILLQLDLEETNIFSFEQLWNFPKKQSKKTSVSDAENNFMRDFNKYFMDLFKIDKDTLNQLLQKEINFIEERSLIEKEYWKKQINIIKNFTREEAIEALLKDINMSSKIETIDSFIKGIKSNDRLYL
method_description: Inhibition of Haemophilus influenzae Hind 3 assessed as undigested supercoiled pBR322 DNA concentration
measure_name: pIC50
Numbers only, as −log10 of the molar value.

Your task in this section: give pIC50 for each listed record.
1. COc1cccc2c1C(=O)c1c(O)c3c(c(O)c1C2=O)C[C@@](O)(C(=O)CO)C[C@@H]3O[C@H]1C[C@H](N)[C@H](O)[C@H](C)O1 [DOXORUBICIN]
2. C=C1NC(=O)C(C)C(CCC(C)C(=O)/C=C/C(C)=C/CC(C)CCCCCCC)OC(=O)[C@H](CC(OS(=O)(=O)O)C(N)=O)NC(=O)[C@@H](C)CNC1=O (some centres undefined) [TOPOSTATIN]

1: 4.02; 2: 4.77

* * *

Can you tell me IC50 for the items I'm about to list?
target_system: DNA ligase (Enterobacteria phage T4, UniProt P00970)
Sequence (P00970 whole entry): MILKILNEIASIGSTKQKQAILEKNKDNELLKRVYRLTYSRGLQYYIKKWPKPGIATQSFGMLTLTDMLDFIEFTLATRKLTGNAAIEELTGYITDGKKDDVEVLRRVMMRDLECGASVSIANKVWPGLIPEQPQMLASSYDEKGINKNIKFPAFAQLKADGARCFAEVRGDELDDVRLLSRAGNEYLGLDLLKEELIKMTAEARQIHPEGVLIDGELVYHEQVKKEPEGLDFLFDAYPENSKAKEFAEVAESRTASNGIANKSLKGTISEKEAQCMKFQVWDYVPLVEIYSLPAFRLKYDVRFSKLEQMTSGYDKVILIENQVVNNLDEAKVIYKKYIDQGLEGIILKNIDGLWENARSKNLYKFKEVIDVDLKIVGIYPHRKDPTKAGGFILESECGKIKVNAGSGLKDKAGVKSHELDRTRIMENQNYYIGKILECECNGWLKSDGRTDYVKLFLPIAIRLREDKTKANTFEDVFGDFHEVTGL
method_description: Inhibition of T4 ligase from bacteriophage infected Escherichia coli assessed as ligation of supercoiled pBR322 DNA
Design: species or system Tequatrovirus T4

Here are 2 compounds together with their reported answers.
[[record]]
query_smiles = "O=C1Oc2cc(O)ccc2/C1=C\\c1ccc(O)cc1"
target_system = "DNA ligase (Enterobacteria phage T4, UniProt P00970)"
measure_name = "IC50"
obs_value = "> 400 µM"

[[record]]
query_smiles = "COc1cccc2c1C(=O)c1c(O)c3c(c(O)c1C2=O)C[C@@](O)(C(=O)CO)C[C@@H]3O[C@H]1C[C@H](N)[C@H](O)[C@H](C)O1"
target_system = "DNA ligase (Enterobacteria phage T4, UniProt P00970)"
measure_name = "IC50"
obs_value = "> 200 µM"


Need IC50, item CC[C@@]1(O)C(=O)OCc2c1cc1n(c2=O)Cc2cc3ccccc3nc2-1
> 300 µM

* * *

target_system: DNA topoisomerase 2-alpha (Homo sapiens, UniProt P11388)
Sequence (P11388 whole entry): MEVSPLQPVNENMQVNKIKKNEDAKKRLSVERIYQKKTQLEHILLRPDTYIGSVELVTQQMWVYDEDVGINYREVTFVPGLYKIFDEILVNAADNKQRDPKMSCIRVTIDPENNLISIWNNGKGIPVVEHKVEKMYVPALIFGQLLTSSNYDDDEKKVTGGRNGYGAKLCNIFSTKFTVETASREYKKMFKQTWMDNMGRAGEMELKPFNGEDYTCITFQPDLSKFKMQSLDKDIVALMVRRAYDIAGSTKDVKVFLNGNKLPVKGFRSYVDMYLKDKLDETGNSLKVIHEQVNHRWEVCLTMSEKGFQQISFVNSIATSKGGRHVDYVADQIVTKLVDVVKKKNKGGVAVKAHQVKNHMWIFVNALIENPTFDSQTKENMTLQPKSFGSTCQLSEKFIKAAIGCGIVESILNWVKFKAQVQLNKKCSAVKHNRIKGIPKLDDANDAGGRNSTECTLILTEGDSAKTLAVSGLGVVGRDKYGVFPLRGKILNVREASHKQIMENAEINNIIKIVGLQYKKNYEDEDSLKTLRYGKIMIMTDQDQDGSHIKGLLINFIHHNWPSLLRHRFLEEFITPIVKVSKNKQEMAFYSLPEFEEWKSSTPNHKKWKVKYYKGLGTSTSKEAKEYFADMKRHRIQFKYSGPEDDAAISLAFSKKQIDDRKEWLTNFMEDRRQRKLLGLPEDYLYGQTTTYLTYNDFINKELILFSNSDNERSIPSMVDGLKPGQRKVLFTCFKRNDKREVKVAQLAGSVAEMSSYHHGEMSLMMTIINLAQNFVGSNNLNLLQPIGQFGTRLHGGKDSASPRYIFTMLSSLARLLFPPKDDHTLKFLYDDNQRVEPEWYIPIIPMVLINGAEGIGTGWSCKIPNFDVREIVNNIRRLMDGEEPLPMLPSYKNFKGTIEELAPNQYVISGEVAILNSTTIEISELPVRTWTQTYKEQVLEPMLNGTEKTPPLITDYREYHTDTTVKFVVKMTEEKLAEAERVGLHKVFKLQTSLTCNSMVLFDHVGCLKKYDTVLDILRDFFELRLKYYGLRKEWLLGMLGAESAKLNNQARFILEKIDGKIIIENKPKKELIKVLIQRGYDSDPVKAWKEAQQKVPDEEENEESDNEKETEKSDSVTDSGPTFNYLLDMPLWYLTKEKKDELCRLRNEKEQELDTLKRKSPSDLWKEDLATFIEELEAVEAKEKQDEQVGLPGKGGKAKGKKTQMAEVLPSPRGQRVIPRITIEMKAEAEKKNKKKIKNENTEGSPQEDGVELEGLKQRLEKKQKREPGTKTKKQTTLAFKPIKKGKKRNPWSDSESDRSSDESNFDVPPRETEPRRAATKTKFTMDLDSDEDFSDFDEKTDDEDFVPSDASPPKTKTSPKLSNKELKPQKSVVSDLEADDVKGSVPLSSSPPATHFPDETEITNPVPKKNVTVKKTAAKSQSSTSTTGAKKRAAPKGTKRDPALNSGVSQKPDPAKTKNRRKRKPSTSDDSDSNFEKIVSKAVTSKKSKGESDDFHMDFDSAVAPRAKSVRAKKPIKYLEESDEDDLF
method_description: Inhibition human placenta topoisomerase 2 assessed as conversion of supercoiled pBR322 DNA to relaxed form
measure_name: pIC50
One number for each entry, as −log10 of the molar value.

[[record]]
compound = "COc1cccc2c1C(=O)c1c(O)c3c(c(O)c1C2=O)C[C@@](O)(C(=O)CO)C[C@@H]3O[C@H]1C[C@H](N)[C@H](O)[C@H](C)O1"
measure_name = "pIC50"
obs_value = 6.00


Lab note: need pIC50 for C=C1NC(=O)C(C)C(CCC(C)C(=O)/C=C/C(C)=C/CC(C)CCCCCCC)OC(=O)[C@H](CC(OS(=O)(=O)O)C(N)=O)NC(=O)[C@@H](C)CNC1=O (stereo partly drawn) on DNA topoisomerase 2-alpha (Homo sapiens, UniProt P11388), anyone have it?
5.40
